Entries annotated with measured BAF3-FLT3 (MIN IL3) 96 well pIC50
Target: Ba/F3-Flt3-transfected cells (Homo sapiens, UniProt P36888, cells depend on it, form not given)
Sequence (P36888 1-993): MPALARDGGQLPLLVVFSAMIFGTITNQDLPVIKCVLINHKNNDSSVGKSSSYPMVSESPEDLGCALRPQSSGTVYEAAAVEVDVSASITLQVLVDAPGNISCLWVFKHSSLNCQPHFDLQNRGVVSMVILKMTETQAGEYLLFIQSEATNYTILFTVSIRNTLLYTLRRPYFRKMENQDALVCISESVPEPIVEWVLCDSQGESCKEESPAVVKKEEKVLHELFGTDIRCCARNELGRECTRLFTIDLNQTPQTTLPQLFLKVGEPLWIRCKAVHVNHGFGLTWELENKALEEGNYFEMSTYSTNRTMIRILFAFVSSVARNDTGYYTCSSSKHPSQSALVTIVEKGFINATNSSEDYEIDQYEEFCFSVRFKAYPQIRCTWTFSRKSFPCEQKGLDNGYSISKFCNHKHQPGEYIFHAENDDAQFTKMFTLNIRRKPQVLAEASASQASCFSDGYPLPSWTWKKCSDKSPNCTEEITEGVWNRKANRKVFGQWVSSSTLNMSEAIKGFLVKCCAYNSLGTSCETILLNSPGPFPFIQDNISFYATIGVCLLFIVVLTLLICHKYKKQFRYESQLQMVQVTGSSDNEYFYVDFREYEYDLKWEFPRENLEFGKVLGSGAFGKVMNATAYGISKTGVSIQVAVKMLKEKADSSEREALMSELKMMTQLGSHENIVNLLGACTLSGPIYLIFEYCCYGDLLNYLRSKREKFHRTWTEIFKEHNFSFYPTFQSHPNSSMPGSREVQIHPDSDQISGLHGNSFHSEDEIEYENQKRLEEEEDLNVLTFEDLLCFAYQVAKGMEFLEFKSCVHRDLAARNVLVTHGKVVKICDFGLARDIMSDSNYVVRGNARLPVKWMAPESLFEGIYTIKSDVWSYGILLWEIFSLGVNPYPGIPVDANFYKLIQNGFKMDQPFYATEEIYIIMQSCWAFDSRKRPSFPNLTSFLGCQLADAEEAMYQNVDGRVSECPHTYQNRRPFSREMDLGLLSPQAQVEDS
Experiment: Ba/F3-Flt3 (minus IL3) cellular proliferation assay, Alamar Blue
Type: cell-based
Conditions: minus IL3, 96 well

{"chem_smiles": "COc1cc(OC)cc(N(CC2CC2)c2ccc3ncc(-c4nnc(C)o4)nc3c2)c1", "test_result": "<5"}
{"chem_smiles": "COc1cc(OC)cc(N(CC2CC2)c2ccc3ncc(-c4ccncc4)nc3c2)c1", "test_result": "<5"}

Consider now this further compound.
Q: // BAF3-FLT3 (MIN IL3) 96 well pIC50 lookup, key: "COc1cc(OC)cc(N(CC2CC2)c2ccc3ncc(N4CCN(C)CC4)nc3c2)c1"
Result: ~5.12
